Below, each of the compounds is paired with its reported Dmax value.
# study_target: SMARCA2 (Homo sapiens)
# method_summary: MSD SMARCA2 degradation in NCI-H1299 cell line (24 h)
# Format: cell-based
# Set-up: HC: NCI-H1299 cells treated with DMSO; host or cells: NCI-H1299
# cond: NCI-H1299, NCI-H1299 cells
observable: Dmax

[[record]]
compound = "CN(CC#Cc1cnc(N2C3CCC2CN(c2cc(-c4ccccc4O)nnc2N)C3)nc1)CCCc1ccc2c(c1)n(C)c(=O)n2C1CCC(=O)NC1=O (stereo not drawn)"
reported_value = "> 90%"

[[record]]
compound = "Cn1c(=O)n(C2CCC(=O)NC2=O)c2ccc(CCCCCCCCCCCOc3cccc(CN4CCN(c5cc(-c6ccccc6O)nnc5N)CC4)c3)cc21 (stereo not drawn)"
reported_value = "< 50%"

[[record]]
compound = "Cn1c(=O)n(C2CCC(=O)NC2=O)c2cccc(CCCOc3ccc(CN4CCN(c5cc(-c6ccccc6O)nnc5N)CC4)cc3)c21 (stereo not drawn)"
reported_value = "50 to 70%"


====

# study_target: SMARCA4 (Homo sapiens)
# Construct: SMARCA2 and SMARCA4 protein degradation in MV4-11 cells; endogenous in cells; host or cells: MV4-11
# Sequence (P51532 whole entry): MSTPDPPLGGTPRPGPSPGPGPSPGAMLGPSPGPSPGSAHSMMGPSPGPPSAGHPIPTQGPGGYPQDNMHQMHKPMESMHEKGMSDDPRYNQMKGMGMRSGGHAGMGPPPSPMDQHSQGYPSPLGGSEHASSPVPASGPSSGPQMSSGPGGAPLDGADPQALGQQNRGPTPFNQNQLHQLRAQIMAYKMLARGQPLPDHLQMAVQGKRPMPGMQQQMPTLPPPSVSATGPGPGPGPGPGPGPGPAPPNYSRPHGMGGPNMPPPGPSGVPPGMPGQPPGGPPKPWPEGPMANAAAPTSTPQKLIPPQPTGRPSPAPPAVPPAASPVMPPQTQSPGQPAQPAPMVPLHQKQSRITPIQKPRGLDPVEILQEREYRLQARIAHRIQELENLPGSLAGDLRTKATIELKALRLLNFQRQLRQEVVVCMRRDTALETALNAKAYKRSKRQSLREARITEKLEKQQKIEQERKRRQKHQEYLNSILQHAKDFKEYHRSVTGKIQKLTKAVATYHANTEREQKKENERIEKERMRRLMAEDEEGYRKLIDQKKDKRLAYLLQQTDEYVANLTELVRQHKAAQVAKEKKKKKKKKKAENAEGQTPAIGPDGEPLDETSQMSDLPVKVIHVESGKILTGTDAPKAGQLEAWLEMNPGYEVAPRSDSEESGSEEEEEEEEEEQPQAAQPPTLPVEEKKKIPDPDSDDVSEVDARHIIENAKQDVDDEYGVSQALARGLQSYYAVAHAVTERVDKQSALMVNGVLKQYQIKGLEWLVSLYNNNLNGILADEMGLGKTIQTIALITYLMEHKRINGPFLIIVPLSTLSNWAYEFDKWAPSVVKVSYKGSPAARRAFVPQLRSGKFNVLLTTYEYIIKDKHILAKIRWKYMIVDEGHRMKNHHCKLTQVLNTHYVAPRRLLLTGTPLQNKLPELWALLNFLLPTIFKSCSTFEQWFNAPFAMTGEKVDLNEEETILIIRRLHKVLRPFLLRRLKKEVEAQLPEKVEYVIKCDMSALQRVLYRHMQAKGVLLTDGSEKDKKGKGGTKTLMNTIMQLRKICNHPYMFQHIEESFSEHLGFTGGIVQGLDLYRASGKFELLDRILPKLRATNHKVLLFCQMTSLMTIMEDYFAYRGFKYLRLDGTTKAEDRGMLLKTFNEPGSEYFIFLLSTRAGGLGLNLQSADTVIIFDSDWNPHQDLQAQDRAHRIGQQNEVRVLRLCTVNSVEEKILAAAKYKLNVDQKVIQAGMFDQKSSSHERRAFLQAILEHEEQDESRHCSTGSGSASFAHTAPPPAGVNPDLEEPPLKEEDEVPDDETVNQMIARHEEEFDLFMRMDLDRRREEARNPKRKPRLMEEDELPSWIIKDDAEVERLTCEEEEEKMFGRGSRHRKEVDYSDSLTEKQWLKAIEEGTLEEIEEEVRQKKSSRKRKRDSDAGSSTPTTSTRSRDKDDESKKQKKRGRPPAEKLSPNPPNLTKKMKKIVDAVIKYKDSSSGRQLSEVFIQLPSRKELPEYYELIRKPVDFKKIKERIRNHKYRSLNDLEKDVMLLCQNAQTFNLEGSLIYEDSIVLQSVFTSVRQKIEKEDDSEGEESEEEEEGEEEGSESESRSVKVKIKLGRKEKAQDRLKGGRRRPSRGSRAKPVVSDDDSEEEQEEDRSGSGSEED
# method_summary: SMARCA4 Western blot MV4-11 degradation
# Assay type: cell-based
# cond: MV4-11 cells, 24 h, read-out: SMARCA4 WB MV411 degradation 24 h: Average external-Abs DC50
# Experimental: Cells were seeded into 6-well plates (MV4-11: 4×10^6 cells/well/1 ml) and 1 ml of 2× compound solution was added into the well to make the final concentration and the plates were mixed well and incubated for 24 hours (No cytotoxicity was observed). The cell were collected with media and spun at 3000 rpm for 5 minutes. […] The membrane was washed three times with TBST, 5 minutes each and lastly the LiCOR was read. […]
Below, each of the compounds is paired with its reported DC50 value.
observable: DC50

[[record]]
compound = "Cn1c(=O)n(C2CCC(=O)NC2=O)c2ccc(CCN3CCN(C(=O)c4cnc(N5C6CCC5CN(c5cc(-c7ccccc7O)nnc5N)C6)nc4)CC3)cc21 (stereo not drawn)"
reported_value = "< 100 nM"

[[record]]
compound = "Nc1nnc(-c2ccccc2O)cc1N1CC2CCC(C1)N2c1ncc(C2CCN(CCCNC(=O)COc3ccc4c(c3)CCCN4C(=O)CCl)CC2)cn1"
reported_value = "> 1000 nM"

[[record]]
compound = "Cc1ncsc1-c1ccc(CNC(=O)[C@@H]2C[C@@H](O)CN2C(=O)[C@@H](NC(=O)CCCCCN2CCC(n3cc(-c4cc(-c5ccccc5O)nnc4N)cn3)CC2)C(C)(C)C)cc1"
reported_value = "100 to 500 nM"


====

Below, each of the compounds is paired with its reported DC50 value.
# study_target: SMARCA2 (Homo sapiens, UniProt P51531)
# Sequence (P51531 whole entry): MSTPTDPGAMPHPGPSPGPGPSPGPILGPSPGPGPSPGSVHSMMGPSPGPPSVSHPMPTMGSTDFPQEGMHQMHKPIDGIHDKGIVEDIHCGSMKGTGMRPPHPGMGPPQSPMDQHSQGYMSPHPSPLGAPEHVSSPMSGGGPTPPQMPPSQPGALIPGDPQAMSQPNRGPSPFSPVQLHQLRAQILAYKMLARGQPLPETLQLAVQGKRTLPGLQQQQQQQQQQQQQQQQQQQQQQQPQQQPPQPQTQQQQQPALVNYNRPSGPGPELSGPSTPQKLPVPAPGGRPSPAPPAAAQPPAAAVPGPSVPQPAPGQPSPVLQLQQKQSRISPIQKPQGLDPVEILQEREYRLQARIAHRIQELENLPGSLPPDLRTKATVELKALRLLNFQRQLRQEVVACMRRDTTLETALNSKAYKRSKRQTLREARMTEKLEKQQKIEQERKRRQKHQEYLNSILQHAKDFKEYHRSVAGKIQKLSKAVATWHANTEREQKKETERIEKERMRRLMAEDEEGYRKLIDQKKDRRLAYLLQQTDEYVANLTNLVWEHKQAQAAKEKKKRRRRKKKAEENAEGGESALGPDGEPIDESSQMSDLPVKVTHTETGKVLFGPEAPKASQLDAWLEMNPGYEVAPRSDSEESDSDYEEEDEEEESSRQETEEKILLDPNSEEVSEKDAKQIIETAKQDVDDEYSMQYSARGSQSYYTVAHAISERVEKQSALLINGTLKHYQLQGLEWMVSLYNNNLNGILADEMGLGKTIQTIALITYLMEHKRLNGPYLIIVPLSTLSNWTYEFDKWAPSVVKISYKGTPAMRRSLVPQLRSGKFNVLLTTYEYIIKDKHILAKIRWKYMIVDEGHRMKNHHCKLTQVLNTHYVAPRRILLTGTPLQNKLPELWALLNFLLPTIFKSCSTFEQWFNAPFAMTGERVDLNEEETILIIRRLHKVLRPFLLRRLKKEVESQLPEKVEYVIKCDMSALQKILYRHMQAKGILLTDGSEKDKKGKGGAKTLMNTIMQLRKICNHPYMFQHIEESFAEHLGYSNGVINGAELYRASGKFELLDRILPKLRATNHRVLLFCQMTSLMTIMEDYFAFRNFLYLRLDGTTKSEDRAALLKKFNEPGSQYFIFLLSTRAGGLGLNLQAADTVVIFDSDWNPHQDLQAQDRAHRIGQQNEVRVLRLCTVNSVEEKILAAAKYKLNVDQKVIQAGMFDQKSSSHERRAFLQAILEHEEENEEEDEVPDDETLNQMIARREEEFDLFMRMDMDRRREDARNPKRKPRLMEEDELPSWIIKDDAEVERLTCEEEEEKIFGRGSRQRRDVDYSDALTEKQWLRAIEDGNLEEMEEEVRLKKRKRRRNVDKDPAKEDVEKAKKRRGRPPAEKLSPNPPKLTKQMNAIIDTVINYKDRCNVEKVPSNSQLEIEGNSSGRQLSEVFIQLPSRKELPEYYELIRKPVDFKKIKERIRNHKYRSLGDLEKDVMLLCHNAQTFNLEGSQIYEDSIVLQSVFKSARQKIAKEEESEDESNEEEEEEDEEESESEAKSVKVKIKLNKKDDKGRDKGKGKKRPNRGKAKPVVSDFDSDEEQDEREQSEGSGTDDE
# method_summary: MSD SMARCA2 degradation in A549 cell line
# Type: cell-based
# cond: A549 cells, 24 h, read-out: SMARCA2 MSD A549 degradation 24 h: Average external-Abs DC50
observable: DC50

[[record]]
compound = "Cc1ncsc1-c1ccc(CNC(=O)[C@@H]2C[C@@H](O)CN2C(=O)[C@@H](NC(=O)[C@H]2C[C@@H](CN3CCC(c4cnc(N5C6CCC5CN(c5cc(-c7ccccc7O)nnc5N)C6)nc4)CC3)C2)C(C)(C)C)cc1"
study_target = "SMARCA2 (Homo sapiens, UniProt P51531)"
reported_value = "100 to 500 nM"

[[record]]
compound = "Cc1ncsc1-c1ccc(CNC(=O)[C@@H]2C[C@@H](O)CN2C(=O)[C@@H](NC(=O)CC2CC(N3CCC(c4cnc(N5C6CCC5CN(c5cc(-c7ccccc7O)nnc5N)C6)nc4)CC3)C2)C(C)(C)C)cc1 (some centres unmarked)"
study_target = "SMARCA2 (Homo sapiens, UniProt P51531)"
reported_value = "100 to 500 nM"

[[record]]
compound = "Cc1ncsc1-c1ccc(CNC(=O)[C@@H]2C[C@@H](O)CN2C(=O)[C@@H](NC(=O)C2CCC(c3cnc(N4C5CCC4CN(c4cc(-c6ccccc6O)nnc4N)C5)nc3)CC2)C(C)(C)C)cc1 (some centres unmarked)"
study_target = "SMARCA2 (Homo sapiens, UniProt P51531)"
reported_value = "< 100 nM"

[[record]]
compound = "Cc1ncsc1-c1ccc(CNC(=O)[C@@H]2C[C@@H](O)CN2C(=O)[C@@H](NC(=O)CCCCCCCNCc2ccc(C#Cc3cc(NC(=O)Nc4cc(F)ncc4CO)ccn3)cc2)C(C)(C)C)cc1"
study_target = "SMARCA2 (Homo sapiens, UniProt P51531)"
reported_value = "> 1000 nM"

[[record]]
compound = "Cn1c(=O)n(C2CCC(=O)NC2=O)c2ccc(CCCN3CCN(c4cnc(N5C6CCC5CN(c5cc(-c7ccccc7O)nnc5N)C6)nc4)CC3)cc21 (centres unmarked)"
study_target = "SMARCA2 (Homo sapiens, UniProt P51531)"
reported_value = "< 100 nM"


The measured values listed here are drawn from patent US12624044B2.
